# assayed_system: T1, human CNTN4 antigen expressed on the cell membrane of 293FT cells (human) (UniProt Q8IWV2)
# T1 sequence (looked up): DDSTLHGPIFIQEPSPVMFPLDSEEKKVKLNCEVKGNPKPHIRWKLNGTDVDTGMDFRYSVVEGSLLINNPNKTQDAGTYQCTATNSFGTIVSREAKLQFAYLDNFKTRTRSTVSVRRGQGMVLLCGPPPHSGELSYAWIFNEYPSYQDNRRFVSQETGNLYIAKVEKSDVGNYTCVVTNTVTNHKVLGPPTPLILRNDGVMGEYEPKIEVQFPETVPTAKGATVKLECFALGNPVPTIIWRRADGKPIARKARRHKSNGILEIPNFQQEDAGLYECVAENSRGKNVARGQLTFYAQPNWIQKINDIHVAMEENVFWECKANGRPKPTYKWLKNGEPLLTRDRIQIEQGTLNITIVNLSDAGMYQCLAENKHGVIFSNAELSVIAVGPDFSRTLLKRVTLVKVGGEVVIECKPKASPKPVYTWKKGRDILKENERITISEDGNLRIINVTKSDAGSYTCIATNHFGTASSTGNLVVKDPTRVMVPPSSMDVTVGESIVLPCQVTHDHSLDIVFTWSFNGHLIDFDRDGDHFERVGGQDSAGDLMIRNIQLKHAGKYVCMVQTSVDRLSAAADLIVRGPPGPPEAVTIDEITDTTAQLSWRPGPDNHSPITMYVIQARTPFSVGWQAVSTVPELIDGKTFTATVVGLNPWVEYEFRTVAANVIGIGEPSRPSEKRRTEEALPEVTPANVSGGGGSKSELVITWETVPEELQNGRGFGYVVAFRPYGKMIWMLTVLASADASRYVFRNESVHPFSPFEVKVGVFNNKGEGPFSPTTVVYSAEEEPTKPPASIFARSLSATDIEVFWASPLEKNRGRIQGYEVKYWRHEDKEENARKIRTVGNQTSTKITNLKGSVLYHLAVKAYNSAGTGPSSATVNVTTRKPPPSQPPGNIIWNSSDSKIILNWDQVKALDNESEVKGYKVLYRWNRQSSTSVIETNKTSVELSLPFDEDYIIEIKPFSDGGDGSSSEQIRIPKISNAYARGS
# method_description: FACS, 293FT cells transfected with human CNTN4, 40 ug/mL, anti-hCk-PE
Examples of binders with documented Shift % follow.
measured_parameter: Shift %

| binder | measured_parameter | reported_result |
| --- | --- | --- |
| anti-CNTN4 scFv-hCk S135 (scFv, part only; not given: linker and kappa constant region, V domains shown, not shown: another chain or arm of the molecule; a dimerising Fc or GST; small tags and cut ends) VL: ALTQPSSVSANPGETVKITCSGGGSSSYYGWYQQKSPGSAPVTVIYYNNRPSDIPSRFSGSGSGSTGTLTITGVRAEDEAVYYCGGYDGSTDVFGAGTTLTVL VH: AVTLDESEGGLQTPGGALSLVCKASGFTFSSFNMFWVRQAPGKGLEYVAEISGGGGSTWYAPAVKGRATISRDNGQSTVRLQLNNLRAEDTGTYYCAKSADTWSYGAATIDAWGHGTEVIVSS | Shift % | 18.2% |
| anti-CNTN4 scFv-hCk S24 (scFv, part only; not given: linker and kappa constant region, not shown: a dimerising Fc or GST) scFv, part: ALTQPSSVSANPGETVEITCSGGSGSYGWYQQKAPGSAPVTVIYDNTNRPSNIPSRFSGSGSDSTGTLTITGVQADDEAVYYCGSYDSIEVIFGAGTTLTVLAVTLDESGGGLHTPGGALSLVCKASGFTFSSYGMAWVRQAPGKGLEWVAGITSSGSSAGYGPAVKGRATISRDNGQSTVRLQLNNLRAEDTATYYCAKDGYIYSGGDSDSIDAWGHGTEVIVSS | Shift % | 5.63% |
| anti-CNTN4 scFv-hCk S83 (scFv, part only; not given: linker and kappa constant region, not shown: a dimerising Fc or GST) scFv, part: ALTQPSSVSANLGETVKITCSGGGGYSGSYYYGWYQQKSPAGAPDTVIYSNNQRPSNIPSRFSGSKSGSTGTLTITEDHAEDEAVYYCGSIDSSSNPGIFGAGTTLTVLAVTLDKSGGGLHTPGGALSLVCKASGFTFSRYIMQWVLQAPGKVLEWVASIRNGTTPKYGAAVKGRATISRDNGQSTVMLQLNSLTYDDTDAYYCDRGDDGDCICGGCAASIDIWCYATEVIVSS | Shift % | 5.27% |
| anti-CNTN4 scFv-hCk S129 (scFv, part only; not given: linker and kappa constant region, not shown: a dimerising Fc or GST) scFv, part: ALTQPSSVSANLGETVKITCSGSSGSYGWYQQKSPGSAPVTLIYDNTNRPSDIPSRFSGSGSGSTGTLTITGVRAEDEAVYYCGGYDGSTDVFGAGTTLTVLAVTLDESEGGLQTPGGALSLVCKASGFTFSSFNMFWVRQAPGKGLEYVAEISGGGGSTWYAPAVKGRATISRDNGQSTVRLQLNNLRAEDTGTYYCAKSADTWSYGAATIDAWGHGTEVIVSS | Shift % | 16% |
| anti-CNTN4 scFv-hCk S134 (scFv, part only; not given: linker and kappa constant region, V domains shown, not shown: another chain or arm of the molecule; a dimerising Fc or GST; small tags and cut ends) VL: ALTQPSSVSANPGETVKITCSGGTYSYGNYYYGWYQQKSPGSAPVTVIYNNNNRPSDIPSRFSGSGSGSTGTLTITGVRAEDEAVYYCGGYDGSTDVFGAGTTLTVL VH: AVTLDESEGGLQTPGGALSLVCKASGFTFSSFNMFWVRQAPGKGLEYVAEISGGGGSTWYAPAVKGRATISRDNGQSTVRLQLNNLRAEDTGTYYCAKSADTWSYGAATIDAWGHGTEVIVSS | Shift % | 18% |
| anti-CNTN4 scFv-hCk S4 (scFv, part only; not given: linker and kappa constant region, not shown: a dimerising Fc or GST) scFv, part: ALTQPSSVSANPGESVKITCSGGGSSYYGWYQQKSPGSAPVTLIYQNTNRPSNIPSRFSGSGSGSTGTLTITGVRAEDEAVYYCGGYDGSTDVFGAGTTLTVLAVTLDESEGGLQTPGGALSLVCKASGFTFSSFNMFWVRQAPGKGLEYVAEISGGGGSTWYASAVKGRATISRDNGQSTVRLQLNNLRAEDTGTYYCAKSADTWSYGAATIDAWGHGTEVIVSS | Shift % | 15.4% |
